system: Clone A human colon cancer cells; experiment: In vitro growth inhibition of Clone A cells (MTT, 72 hr); format: cell-based; conditions: 72 h, read-out: Clone A IC50
log10 of IC50 by entry:
// do not treat as linear: log10 of IC50, unit µg/mL

- Given Smiles: "CS(=O)(=O)O.CS(=O)(=O)O.Cc1cnc2c(c1)cc1c3c(cc([N+](=O)[O-])cc32)C(=O)N([C@H](C)CNCCNC[C@@H](C)N2C(=O)c3cc([N+](=O)[O-])cc4c3c(cc3cc(C)cnc34)C2=O)C1=O"
  log10 of IC50: -1.52
- Given Smiles: "CS(=O)(=O)O.N#Cc1ccc2cc3c4c(cccc4c2c1)C(=O)N(CCCCNCCCN1C(=O)c2cccc4c2c(cc2ccc(C#N)cc24)C1=O)C3=O"
  log10 of IC50: -2.15
- Given Smiles: "COc1ccc2c(c1)cc1c3c(cccc32)C(=O)N(CCCCNCCCN2C(=O)c3cccc4c3c(cc3cc(OC)ccc34)C2=O)C1=O.CS(=O)(=O)O"
  log10 of IC50: -0.21
- Given Smiles: "CCc1ccc2cc3c4c(cccc4c2c1)C(=O)N(CCCCNCCCN1C(=O)c2cccc4c2c(cc2ccc(CC)cc24)C1=O)C3=O.CS(=O)(=O)O"
  log10 of IC50: -0.12

Here's the next entry for you.
Find the recorded log10 of IC50 belonging to CS(=O)(=O)O.O=C1c2cc([N+](=O)[O-])cc3c2c(cc2cccnc23)C(=O)N1CCCNCCN1C(=O)c2cc([N+](=O)[O-])cc3c2c(cc2cccnc23)C1=O and report it.
-2.40
